# experiment_notes: Formation of solutions of nitrapyrin salts at 20% w/w nitrapyrin and grading of solutions
# Format: physicochemical
# Set-up: key: 5: Fully dissolved; 4: Mostly dissolved; 3: Mostly not dissolved; 2: Not dissolved; 1: Additional precipitate
# condition_label: solvent propylene carbonate (F)
measurement_type: grading of solution

Worked cases, grading of solution given:
{"compound": "O=C(O)C(O)C(O)C(=O)O (centres unmarked) [tartaric]", "grading of solution": 2}
{"compound": "O=C(O)CCC(=O)O [succinic]", "grading of solution": 3}
{"compound": "CC(O)(P(=O)(O)O)P(=O)(O)O.Clc1cccc(C(Cl)(Cl)Cl)n1.Clc1cccc(C(Cl)(Cl)Cl)n1.Clc1cccc(C(Cl)(Cl)Cl)n1.Clc1cccc(C(Cl)(Cl)Cl)n1 [etidronic]", "grading of solution": 2}

Exercise: What value of measured grading of solution is listed for Clc1cccc(C(Cl)(Cl)Cl)n1.Clc1cccc(C(Cl)(Cl)Cl)n1.O=C(O)c1cccc(C(=O)O)c1 [isophthalic] ?
Key: 3

Exercise: What value of measured grading of solution is listed for Clc1cccc(C(Cl)(Cl)Cl)n1.Clc1cccc(C(Cl)(Cl)Cl)n1.O=C(O)CC(O)C(=O)O [malic] ?
Key: 3
